These entries and their values trace back to patent US10308686B2.

System: human red blood cells (hRBC's)
Assay: Hemolysis assay
Format: cell-based
Settings: red cells of human
measurementName: Hemolysis HC50

CCCCCCCCCCCCCCCC(=O)N[C@@H](CCCCN)CN(CC(=O)N[C@@H](CCCCN)CN(CC(N)=O)C(=O)CCCN)C(=O)CCCN; 300 µg/mL
CCCCCCCC/C=C\CCCCCCCC(=O)N[C@@H](CCCCN)C(=O)N[C@@H](CCCCN)CN(CC(N)=O)C(=O)CCCN; > 500 µg/mL
CCCCCCCCCCCCCCCC(=O)N[C@@H](C)CN(CC(=O)N[C@@H](C)CN(CC(=O)N[C@@H](CCC(=O)O)CN(CC(=O)N[C@@H](CCC(=O)O)CN(CC(=O)N[C@@H](CCC(=O)O)CN(CC(N)=O)C(=O)CC(=O)O)C(=O)CC(=O)O)C(=O)CC(=O)O)C(C)=O)C(C)=O; > 500 µg/mL
CCCCCCCCCCCCCCCC(=O)N[C@@H](C)CN(CC(=O)N[C@@H](C)CN(CC(=O)N[C@@H](CCCCN)CN(CC(=O)N[C@@H](CCCCN)CN(CC(=O)N[C@@H](CCCCN)CN(CC(N)=O)C(=O)CCCN)C(=O)CCCN)C(=O)CCCN)C(C)=O)C(C)=O; > 500 µg/mL
CCCCCCCC/C=C\CCCCCCCC(=O)N[C@@H](C)CN(CC(=O)N[C@@H](C)CN(CC(=O)N[C@@H](CC(C)C)CN(CC(=O)N[C@@H](CC(C)C)CN(CC(=O)N[C@@H](CC(C)C)CN(CC(N)=O)C(=O)CCCN)C(=O)CCCN)C(=O)CCCN)C(C)=O)C(C)=O; > 500 µg/mL
CCCCCCCCCCCCCCCC(=O)N[C@@H](C)CN(CC(=O)N[C@@H](C)CN(CC(=O)N[C@@H](Cc1ccccc1)CN(CC(=O)N[C@@H](Cc1ccccc1)CN(CC(=O)N[C@@H](Cc1ccccc1)CN(CC(N)=O)C(=O)CC(=O)O)C(=O)CC(=O)O)C(=O)CC(=O)O)C(C)=O)C(C)=O; > 500 µg/mL
CCCCCCCC/C=C\CCCCCCCC(=O)N[C@@H](CCCCN)CN(CC(N)=O)C(=O)CCCN; 100 µg/mL
CC(C)C[C@@H](CN(CC(=O)N[C@@H](CCCCN)CN(CC(N)=O)C(=O)CCc1ccccc1)C(=O)CCc1ccccc1)NC(=O)CN(C[C@H](CCCCN)NC(=O)CN(C[C@H](CCCCN)NC(=O)CN(C[C@H](CC(C)C)NC(=O)CN(C[C@H](CCCCN)NC(=O)CN(C[C@@H](N)CCCCN)C(=O)CCc1ccccc1)C(=O)CCc1ccccc1)C(=O)CCc1ccccc1)C(=O)CCc1ccccc1)C(=O)CCc1ccccc1; 300 µg/mL
CCCCCCCCCCCC(=O)N[C@@H](CCCCN)CN(CC(N)=O)C(=O)CCCN; > 500 µg/mL
CCCCCCCCCCCCCCCC(=O)N[C@@H](C)CN(CC(=O)N[C@@H](C)CN(CC(=O)N[C@@H](CC(C)C)CN(CC(=O)N[C@@H](CC(C)C)CN(CC(=O)N[C@@H](CC(C)C)CN(CC(N)=O)C(=O)CCCN)C(=O)CCCN)C(=O)CCCN)C(C)=O)C(C)=O; > 500 µg/mL
CCCCCCCCCCCCCCCC(=O)N[C@@H](CCCCN)CN(CC(N)=O)C(=O)CCCN; 40 µg/mL
CC(=O)N(CC(=O)N[C@@H](C)CN(CC(=O)N[C@@H](CC(C)C)CN(CC(=O)N[C@@H](CC(C)C)CN(CC(=O)N[C@@H](CC(C)C)CN(CC(N)=O)C(=O)CCCN)C(=O)CCCN)C(=O)CCCN)C(C)=O)C[C@H](C)N; > 500 µg/mL
CCCCCCCC/C=C\CCCCCCCC(=O)N[C@@H](CCCCN)CN(CC(=O)N[C@@H](CCCCN)CN(CC(N)=O)C(=O)CCCN)C(=O)CCCN; > 500 µg/mL
CCCCCCCCCCCCCCCC(=O)N[C@@H](CCCCN)CN(CC(=O)N[C@@H](CCCCN)CN(CC(=O)N[C@@H](CCCCN)CN(CC(N)=O)C(=O)CCCN)C(=O)CCCN)C(=O)CCCN; > 500 µg/mL
